B1: TPR t1 (parent)
chain: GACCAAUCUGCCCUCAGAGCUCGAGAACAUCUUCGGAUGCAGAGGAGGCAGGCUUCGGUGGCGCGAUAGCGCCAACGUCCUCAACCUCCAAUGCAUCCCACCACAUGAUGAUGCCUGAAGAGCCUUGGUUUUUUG

Variants of: B1
Test: polymerase ribozyme fitness, log enrichment relative to wild type (log ratio); higher = more active; in vitro selection for triplet polymerase activity
Readout Name: polymerase ribozyme fitness (log ratio)

C8U U9C A119U    0.976
C70A C72G C102A C104A    -6.86
G60U A75U U87C    0.354
C12G G19U C72U    -6.54
C12U C40U G42C C80A C88G C102A A111G C123U U134G    -6.19
U33G C49G G57A C62U A84C C88G G93A G110C    -7.42
